Assay: Drug concentrations in Rhesus macaque ecto-cervical tissue explants (LC-MS/MS)
Type: in vitro ADME, Rhesus macaque (Macaca mulatta)
Conditions: monkey, ecto-cervical tissue explants, Rh. macaque ecto-cervical explants; Comb. gel, Low [ ]: TFV 7 µM + MVC […]; 3 h exposure
measured quantity: Cmax (ng/g)
Respond numerically; units are ng/g and should not be typed.

Task: Please give the measured Cmax for this compound: C[C@H](Cn1cnc2c(N)ncnc21)OCP(=O)(O)O
Output: 1860

====

Tested on: HIV-1YU.2 M184V
Test: microbe, parasite or virus in culture
Assay type: cell-based
Conditions: Human immunodeficiency virus 1, 360 h, Human colorectal explants, day 15
measured quantity: IC50 (µM)
Respond numerically; units are µM and should not be typed.

Task: Please give the measured IC50 for this molecule: C[C@H](Cn1cnc2c(N)ncnc21)OCP(=O)(O)O
Output: 37.9
